Cited source: the RNAGym collection of RNA variant scans (doi:10.1126/science.aae0568)

B1: tRNA (parent)
chain: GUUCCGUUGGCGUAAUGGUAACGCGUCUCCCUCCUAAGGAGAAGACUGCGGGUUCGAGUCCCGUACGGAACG

# Variants of: B1
# measurement.description: yeast fitness relative to wild type (ratio to wild type); higher = fitter; tRNA-Arg(CCU), competitive growth, 37 C, YPD
This sample holds only a part of the variants without activity.
reported.metric: yeast fitness
One number for each entry.

Previously resolved entries follow.
- mutation.name: "G6C G56A"
  measured.number: 1.03
- mutation.name: "G10A C60G A69G"
  measured.number: 0.616
- mutation.name: "G6A G48A"
  measured.number: 0.886

Okay, here is my list. What is yeast fitness for each of these?
1. U7C G56A
2. C29U
3. U13C U47C C62U
4. G12A C46A
5. U2A C4U
6. C30A A65G

Output line:
0.977
0.989
0.715
1.05
0.965
1.02

Okay, here is my list. What is yeast fitness for each of these?
1. C34U A69U
2. A20U C61U C66U
3. G6A A14U U64G
4. U7C A14G G17A A69U
5. U8C A45C C66U

Output line:
0.667
0.559
0.664
0.553
0.626
